# tgt: JAK2 (Homo sapiens (Human))
# Sequence (O60674 whole entry): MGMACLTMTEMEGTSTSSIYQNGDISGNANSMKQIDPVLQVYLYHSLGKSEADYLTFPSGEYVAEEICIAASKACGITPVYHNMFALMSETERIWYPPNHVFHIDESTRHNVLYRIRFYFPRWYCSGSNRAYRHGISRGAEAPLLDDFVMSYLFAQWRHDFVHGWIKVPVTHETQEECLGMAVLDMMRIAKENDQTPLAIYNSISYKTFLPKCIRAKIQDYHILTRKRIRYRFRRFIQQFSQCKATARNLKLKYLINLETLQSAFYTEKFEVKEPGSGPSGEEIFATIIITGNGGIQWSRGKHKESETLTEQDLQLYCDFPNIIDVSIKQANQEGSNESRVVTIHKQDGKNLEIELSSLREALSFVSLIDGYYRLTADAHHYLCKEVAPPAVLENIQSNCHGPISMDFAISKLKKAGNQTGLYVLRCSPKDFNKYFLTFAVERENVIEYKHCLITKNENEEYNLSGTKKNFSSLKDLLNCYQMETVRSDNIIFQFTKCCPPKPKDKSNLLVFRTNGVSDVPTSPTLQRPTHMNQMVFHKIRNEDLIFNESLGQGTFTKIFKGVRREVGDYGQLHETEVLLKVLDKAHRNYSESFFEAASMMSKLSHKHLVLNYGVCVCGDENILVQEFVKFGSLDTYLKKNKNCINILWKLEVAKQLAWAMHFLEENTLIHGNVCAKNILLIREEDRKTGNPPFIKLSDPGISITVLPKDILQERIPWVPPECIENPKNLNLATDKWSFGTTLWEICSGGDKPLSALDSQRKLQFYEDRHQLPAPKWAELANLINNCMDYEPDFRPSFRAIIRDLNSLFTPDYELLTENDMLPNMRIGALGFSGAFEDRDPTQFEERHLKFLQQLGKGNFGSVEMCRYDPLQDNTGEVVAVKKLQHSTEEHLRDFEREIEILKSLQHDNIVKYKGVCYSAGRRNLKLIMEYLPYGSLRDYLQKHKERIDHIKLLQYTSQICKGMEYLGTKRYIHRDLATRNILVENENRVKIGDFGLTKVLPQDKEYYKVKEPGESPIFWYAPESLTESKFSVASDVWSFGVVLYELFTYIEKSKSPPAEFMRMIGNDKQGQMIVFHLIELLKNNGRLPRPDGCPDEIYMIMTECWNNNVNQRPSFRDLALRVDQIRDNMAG
# assay_method_text: Inhibition of JAK2, luminescence kinase assay (ADP-Glo)
# condition_description: purified recombinant JAK2
pIC50: −log10 of the molar value.
reported_endpoint: pIC50

In plain terms, CNC(=O)CC1(n2cc(-c3ncnc4[nH]ccc34)cn2)CN(S(C)(=O)=O)C1 has a documented pIC50 of < 7.30

In plain terms, CC[C@](C)(C#N)Nc1ccnc(-c2ccnc3[nH]ccc23)n1 has a documented pIC50 of < 7.30

In plain terms, NC(=O)CC1(n2cc(-c3c[nH]c4ncccc34)cn2)CCS(=O)(=O)CC1 has a documented pIC50 of < 7.30

====

# tgt: JAK3 (Homo sapiens (Human), UniProt P52333)
# Sequence (P52333 whole entry): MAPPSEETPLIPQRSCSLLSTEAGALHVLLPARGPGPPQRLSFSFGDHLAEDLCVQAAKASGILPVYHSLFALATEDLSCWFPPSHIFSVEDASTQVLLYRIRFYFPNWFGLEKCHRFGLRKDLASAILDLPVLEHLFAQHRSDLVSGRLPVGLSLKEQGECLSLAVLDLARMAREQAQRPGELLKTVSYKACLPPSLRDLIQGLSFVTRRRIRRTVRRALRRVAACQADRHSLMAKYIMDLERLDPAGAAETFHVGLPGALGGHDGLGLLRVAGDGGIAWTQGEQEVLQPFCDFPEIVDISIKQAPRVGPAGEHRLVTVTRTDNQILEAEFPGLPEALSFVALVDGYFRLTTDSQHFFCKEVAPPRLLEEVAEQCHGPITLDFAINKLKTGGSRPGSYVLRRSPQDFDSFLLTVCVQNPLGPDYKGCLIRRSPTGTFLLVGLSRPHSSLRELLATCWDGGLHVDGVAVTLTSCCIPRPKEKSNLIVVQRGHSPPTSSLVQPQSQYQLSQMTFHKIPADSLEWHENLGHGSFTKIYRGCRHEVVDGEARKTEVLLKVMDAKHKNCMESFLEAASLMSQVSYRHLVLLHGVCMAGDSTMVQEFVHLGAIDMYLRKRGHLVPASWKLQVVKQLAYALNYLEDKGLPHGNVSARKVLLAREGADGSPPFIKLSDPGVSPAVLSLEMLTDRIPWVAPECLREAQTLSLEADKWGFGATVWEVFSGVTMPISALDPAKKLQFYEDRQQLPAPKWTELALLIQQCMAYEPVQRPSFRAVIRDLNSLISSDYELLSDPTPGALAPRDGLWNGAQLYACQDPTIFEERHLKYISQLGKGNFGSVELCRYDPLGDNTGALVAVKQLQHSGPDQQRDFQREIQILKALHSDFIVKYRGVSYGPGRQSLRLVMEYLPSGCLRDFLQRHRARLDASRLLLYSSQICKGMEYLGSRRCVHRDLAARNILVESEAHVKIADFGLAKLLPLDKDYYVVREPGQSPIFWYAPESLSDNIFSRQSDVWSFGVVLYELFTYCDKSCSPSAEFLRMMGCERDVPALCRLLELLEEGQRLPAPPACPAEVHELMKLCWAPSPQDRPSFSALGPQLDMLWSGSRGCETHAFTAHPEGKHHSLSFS
# assay_method_text: Inhibition of JAK3, luminescence kinase assay (ADP-Glo)
# condition_description: purified recombinant JAK3
pIC50: −log10 of the molar value.
reported_endpoint: pIC50

In plain terms, CS(=O)(=O)N1CC(C#N)(Nc2ccnc(-c3ncnc4[nH]ccc34)n2)C1 has a documented pIC50 of 7.30 to 7.70

In plain terms, CCS(=O)(=O)N1CC(CC(=O)NCC(F)(F)F)(n2cc(-c3ccnc4[nH]ccc34)cn2)C1 has a documented pIC50 of < 7.30

In plain terms, CS(=O)(=O)N1CC(CC(=O)NCC(F)(F)F)(n2cc(-c3ncnc4[nH]ccc34)cn2)C1 has a documented pIC50 of < 7.30

In plain terms, CCS(=O)(=O)N1CC(C#N)(Nc2ccnc(-c3ccnc4[nH]ccc34)n2)C1 has a documented pIC50 of 7.30 to 7.70

In plain terms, O=C(CC1(n2cc(-c3ccnc4[nH]ccc34)cn2)CCCC1)NCC(F)(F)F has a documented pIC50 of < 7.30

====

# tgt: JAK1 (Homo sapiens (Human))
# Sequence (P23458 whole entry): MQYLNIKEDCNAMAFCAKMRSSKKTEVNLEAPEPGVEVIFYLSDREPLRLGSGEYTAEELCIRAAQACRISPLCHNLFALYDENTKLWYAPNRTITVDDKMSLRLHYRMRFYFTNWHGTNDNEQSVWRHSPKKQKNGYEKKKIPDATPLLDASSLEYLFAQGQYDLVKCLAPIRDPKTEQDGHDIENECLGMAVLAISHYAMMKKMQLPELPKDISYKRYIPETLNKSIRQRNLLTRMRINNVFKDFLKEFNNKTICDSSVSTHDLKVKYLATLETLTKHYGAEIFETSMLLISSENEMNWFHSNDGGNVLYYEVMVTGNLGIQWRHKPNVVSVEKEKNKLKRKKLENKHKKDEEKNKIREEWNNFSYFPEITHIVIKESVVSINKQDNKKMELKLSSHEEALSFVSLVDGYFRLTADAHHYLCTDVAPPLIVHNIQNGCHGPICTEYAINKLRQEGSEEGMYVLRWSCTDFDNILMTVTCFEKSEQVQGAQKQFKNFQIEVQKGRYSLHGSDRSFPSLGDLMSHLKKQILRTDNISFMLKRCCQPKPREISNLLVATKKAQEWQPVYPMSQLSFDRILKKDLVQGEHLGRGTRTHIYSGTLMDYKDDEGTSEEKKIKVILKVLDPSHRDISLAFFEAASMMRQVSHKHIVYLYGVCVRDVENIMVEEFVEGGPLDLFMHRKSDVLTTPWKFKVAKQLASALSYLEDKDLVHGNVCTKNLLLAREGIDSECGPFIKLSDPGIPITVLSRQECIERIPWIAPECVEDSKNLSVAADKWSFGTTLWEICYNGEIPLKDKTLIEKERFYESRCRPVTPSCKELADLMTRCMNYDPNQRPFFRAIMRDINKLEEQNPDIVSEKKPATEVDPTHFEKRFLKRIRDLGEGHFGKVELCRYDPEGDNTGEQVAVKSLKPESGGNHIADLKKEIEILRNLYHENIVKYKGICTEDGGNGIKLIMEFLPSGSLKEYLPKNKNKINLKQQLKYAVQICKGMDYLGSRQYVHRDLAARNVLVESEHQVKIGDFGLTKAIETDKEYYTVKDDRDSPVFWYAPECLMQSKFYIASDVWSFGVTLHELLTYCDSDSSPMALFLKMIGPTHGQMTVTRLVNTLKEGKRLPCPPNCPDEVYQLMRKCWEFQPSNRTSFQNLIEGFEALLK
# assay_method_text: Inhibition of JAK1, luminescence kinase assay (ADP-Glo)
# condition_description: purified recombinant JAK1
Measured IC50, listed per entry for reference.

Answered cases to consult:
{"compound": "O=C(CC1(n2cc(-c3ccnc4[nH]ccc34)cn2)CCS(=O)(=O)CC1)NCC(F)(F)F [Example 21]", "result": "20 to 50 nM"}
{"compound": "N#CCC1(n2cc(-c3ccnc4[nH]ccc34)cn2)CCS(=O)(=O)CC1 [Example 4]", "result": "< 20 nM"}
{"compound": "N#CC1(Nc2ccnc(-c3ccnc4[nH]ccc34)n2)CCS(=O)(=O)CC1 [Example 53]", "result": "> 50 nM"}
{"compound": "O=C(NCC(F)(F)F)C1(Nc2nc(-c3c[nH]c4ncccc34)ncc2F)CN(S(=O)(=O)C2CC2)C1 [Example 36]", "result": "> 50 nM"}
{"compound": "N#CC1(Nc2ccnc(-c3c[nH]c4ncccc34)n2)CCCC1 [Example 57]", "result": "> 50 nM"}

In plain terms, CS(=O)(=O)N1CC(C#N)(Nc2ccnc(-c3c[nH]c4ncccc34)n2)C1 [Example 48] has a documented IC50 of > 50 nM

====

Measured IC50, listed per entry for reference.
# tgt: UniProtKB P52333
# assay_method_text: Inhibition of JAK3, luminescence kinase assay (ADP-Glo)
# condition_description: purified recombinant JAK3

{"smiles_text": "CCS(=O)(=O)N1CC(CC(=O)NCC(F)(F)F)(n2cc(-c3ncnc4[nH]ccc34)cn2)C1", "IC50": "> 50 nM"}

Let us move to another entry and its IC50.
In plain terms, CS(=O)(=O)N1CC(CC(=O)NCC(F)(F)F)(n2cc(-c3ccnc4[nH]ccc34)cn2)C1 has a documented IC50 of < 20 nM

====

# tgt: JAK3 (Homo sapiens (Human), UniProt P52333)
# assay_method_text: Inhibition of JAK3, luminescence kinase assay (ADP-Glo)
# condition_description: purified recombinant JAK3
Measured IC50, listed per entry for reference.

Answered cases to consult:
{"molecule": "N#CC1(Nc2ccnc(-c3ccnc4[nH]ccc34)n2)CCCC1 [Example 59]", "tgt": "JAK3 (Homo sapiens (Human), UniProt P52333)", "IC50": "20 to 50 nM"}
{"molecule": "CCS(=O)(=O)N1CCC(Nc2ccnc(-c3c[nH]c4ncccc34)n2)(C(=O)NCC(F)(F)F)CC1 [Example 38]", "tgt": "JAK3 (Homo sapiens (Human), UniProt P52333)", "IC50": "20 to 50 nM"}
{"molecule": "O=C(CC1(n2cc(-c3c[nH]c4ncccc34)cn2)CCCC1)NCC(F)(F)F [Example 25]", "tgt": "JAK3 (Homo sapiens (Human), UniProt P52333)", "IC50": "20 to 50 nM"}

Let us move to another entry and its IC50.
In plain terms, CS(=O)(=O)N1CC(C#N)(Nc2ccnc(-c3ccnc4[nH]ccc34)n2)C1 [Example 50] has a documented IC50 of > 50 nM
